For each entry below, report its IC50 value.
Molecular target: JAK1 (recombinant purified GST-tagged catalytic domain) (Homo sapiens (Human), UniProt P23458)
Sequence (P23458 875-1153): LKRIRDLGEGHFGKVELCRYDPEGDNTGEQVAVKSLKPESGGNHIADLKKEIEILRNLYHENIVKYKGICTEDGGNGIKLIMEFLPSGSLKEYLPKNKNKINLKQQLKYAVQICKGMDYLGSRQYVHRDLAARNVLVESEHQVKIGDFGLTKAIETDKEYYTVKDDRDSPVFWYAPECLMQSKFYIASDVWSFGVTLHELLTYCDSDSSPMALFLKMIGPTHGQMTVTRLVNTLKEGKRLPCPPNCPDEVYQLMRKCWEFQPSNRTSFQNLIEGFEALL
Assay: Jak Biochemical HTRF Assay (JAK1)
Details: [ATP] 31.8 μM
Protocol: Jak Biochemical HTRF Assay Protocol The ability of compounds to inhibit the activity of JAK1, JAK2, JAK3, and Tyk2 was measured using a recombinant purified GST-tagged catalytic domain for each enzyme (Invitrogen JAK1 #M4290, JAK2 #M4290, JAK3 #M4290, Tyk2 #M4290) in an HTRF format biochemical assay. […] Plates were shaken and centrifuged and then incubated 60 minutes at room temperature and then read on a Perkin Elmer Envision (λex=337 nm, λem=665 and 615 nm, TRF delay time=20 μs). […]
One number for each entry, in nM.

Some molecules with known IC50 results, for comparison:
- Molecule: "CC(C)(C)N1Cc2cc(Nc3nn([C@]4(CC#N)CCOC[C@@H]4F)c4cc[nH]c(=O)c34)ccc2S1(=O)=O (single isomer, unassigned)"
  Endpoint Name: "IC50"
  Units Symbol: "nM"
  Endpoint Result: 0.04
- Molecule: "CC(C)(C)N1Cc2cc(Nc3nn([C@]4(CC#N)CCOC[C@@H]4F)c4cc[nH]c(=O)c34)ccc2C1=O (single isomer, unassigned)"
  Endpoint Name: "IC50"
  Units Symbol: "nM"
  Endpoint Result: 0.04

# batch: return IC50 for each of the 4 molecules below
1. Cc1cc(Nc2nn([C@@]3(CC#N)CCCC[C@H]3F)c3cc[nH]c(=O)c23)ccc1C(=O)N1CCC(F)(F)CC1
2. CC(C)(C)NS(=O)(=O)c1ccc(Nc2nn([C@]3(CC#N)CCCOC3)c3cc[nH]c(=O)c23)cc1
3. CC(C)(C)OC(=O)N1CC[C@](CC#N)(n2nc(Nc3ccc4c(c3)CN(C(C)(C)C)S4(=O)=O)c3c(=O)[nH]ccc32)[C@H](F)C1
4. CN(C)C(c1ccc(Nc2nn([C@]3(CC#N)CC[C@@H](C(=O)OC(C)(C)C)OC3)c3cc[nH]c(=O)c23)cc1)C(F)(F)F (single isomer, unassigned) [Example 5-213]

0.09
0.2
0.15
0.19

====

For each entry below, report its pIC50 value.
biological target: JAK2 (recombinant purified GST-tagged catalytic domain) (Homo sapiens (Human), UniProt O60674); test: Jak Biochemical HTRF Assay (JAK2); details: [ATP] 8.5 μM
Sequence (O60674 849-1124): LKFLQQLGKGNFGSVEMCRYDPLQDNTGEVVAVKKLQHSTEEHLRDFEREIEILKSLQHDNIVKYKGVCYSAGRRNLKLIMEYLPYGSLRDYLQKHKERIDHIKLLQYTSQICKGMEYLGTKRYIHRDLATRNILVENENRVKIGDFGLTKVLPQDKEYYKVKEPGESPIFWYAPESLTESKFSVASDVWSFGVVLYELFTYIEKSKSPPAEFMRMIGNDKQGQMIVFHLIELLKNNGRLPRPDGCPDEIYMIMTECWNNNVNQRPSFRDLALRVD
Give bare numbers, as −log10 of the molar value.

Some compounds with known pIC50 results, for comparison:
- Compound: "CSC(C)C(=O)N1CCC(CC#N)(n2nc(Nc3ccc(S(=O)(=O)N(C)C)cc3)c3c(=O)[nH]ccc32)CC1 (stereo not drawn)"
  pIC50: 9.44
- Compound: "CC(C)(C)OC(=O)[C@@H]1CC[C@@](CC#N)(n2nc(Nc3cnc4ccccc4c3)c3c(=O)[nH]ccc32)CO1"
  pIC50: 8.28
- Compound: "CC(C)NC(c1ccc(Nc2nn([C@]3(CC#N)CCCOC3)c3cc[nH]c(=O)c23)cc1)C(F)(F)F (single isomer, unassigned) [Example 5-206]"
  pIC50: 9.80
- Compound: "CC(C)(C)OC(=O)[C@@H]1CC[C@@](CC#N)(n2nc(Nc3ccc([C@@H](N)C(F)(F)F)cc3)c3c(=O)[nH]ccc32)CO1 (single isomer, unassigned)"
  pIC50: 9.31
- Compound: "CNS(=O)(=O)c1ccc(Nc2nn([C@]3(CC#N)CC[C@@H](C(=O)OC(C)(C)C)OC3)c3cc[nH]c(=O)c23)cc1"
  pIC50: 9.74

Consider now this further compound.
What the record says about CC(C)(C)OC(=O)[C@@H]1CC[C@@](CC#N)(n2nc(Nc3ccc(S(=O)(=O)N4CCOCC4)cc3)c3c(=O)[nH]ccc32)CO1 : pIC50 is 9.57
